- Method description: Inhibition of chymotrypsin-like activity of rabbit 20S proteasome
- Set-up: species or system Oryctolagus cuniculus
pIC50: −log10 of the molar value.
Quantity: pIC50

Compound | pIC50
COC(=O)[C@H](Cc1ccccc1)NC(=O)CC(NNC(=O)[C@H](CCCCN)NC(=O)OC(C)(C)C)C(F)(F)F (mixture of isomers) | 4.49

(I) COC(=O)[C@H](Cc1ccccc1)NC(=O)CC(NNC(=O)[C@H](Cc1ccc(OC)c(OC)c1)NC(=O)Cc1cccc(Oc2ccccc2)c1)C(F)(F)F (mixture of isomers)
(II) COC(=O)[C@H](Cc1ccccc1)NC(=O)CC(NNC(=O)[C@@H](N)CCCCNC(=O)OCc1ccccc1)C(F)(F)F (mixture of isomers)
(III) COC(=O)[C@H](Cc1ccccc1)NC(=O)CC(NNC(=O)[C@H](CCCCN)NC(=O)Cc1cccc(Oc2ccccc2)c1)C(F)(F)F (mixture of isomers)
query: Rank by pIC50 (largest to smallest). # answer = labels listed in requested order
result: III, II, I
(III: 5.80, II: 5.23, I: 4.07)
